Listing of entries alongside the reported composite z-score.
- Study System: Streptavidin (Streptomyces avidinii) (UniProt P22629)
- Sequence (P22629 whole entry, looked up): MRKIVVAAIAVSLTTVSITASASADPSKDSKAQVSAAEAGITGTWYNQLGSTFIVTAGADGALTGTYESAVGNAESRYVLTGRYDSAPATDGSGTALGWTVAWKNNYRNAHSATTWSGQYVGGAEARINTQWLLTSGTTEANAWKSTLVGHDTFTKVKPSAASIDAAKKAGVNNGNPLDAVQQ
- Test Method Notes: streptavidin binders on small-molecule microarray, primary screen, artefact control for SMM compound annotation, biophysical, 635/667 nm fluorescence (AID 1147);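 note: signal reflects streptavidin binding to arrayed compounds as a control protein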
- Study Conditions: streptavidin binding, higher = more signal
Reported Property: composite z-score

Compound: NCCCCCNC(=O)[C@@H]1C[C@@H]2C(=O)N[C@@H](Cc3ccccc3)C(=O)N2[C@@H]1c1ccc(O)cc1
Reported: 1.38
--
Compound: C=CCOC(=O)[C@@H]1[C@H]2C(=O)O[C@H](c3ccccc3)[C@H](c3ccccc3)N2[C@H](c2ccc(OCCOC(=O)[C@@H]3C[C@@H]4C(=O)NCC(=O)N4[C@@H]3c3ccc(O)cc3)cc2)[C@@]12C(=O)Nc1ccc(I)cc12
Reported: -0.259
--
Compound: CN(C)C(=O)[C@@]1(CCS(=O)(=O)c2ccccc2)COC(c2ccc(OCCCO)cc2)=N1
Reported: 0.0248
--
Compound: CCCCCN1CC=CC23O[C@@H]4C=CCCOC(=O)C4[C@H]2C(=O)N(CCCCCO)[C@@H]3C1=O (some centres undefined)
Reported: -0.729

----------
Listing of entries alongside the reported composite z-score.
- Test system: Sonic hedgehog protein (Shh)
- Test Method Notes: small-molecule binders of Shh protein, primary screen, biochemical, small-molecule microarray, 635/667 nm fluorescence (AID 1151);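 note: Shh protein binding to compounds spotted on small-molecule microarray slides; score combines spot fluorescence intensity with signal-to-noise across triplicate slides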
- Study Conditions: small-molecule microarray binding, 635 nm fluorescence; higher = more signal

Compound: C=C(COC)/C(=C/C[C@H](OC(C)=O)c1ccc(CO)o1)c1cc(C(=O)OC)ccc1OC
composite z-score: 0.756

Compound: C=CCOC(=O)[C@H]1[C@@H]2C(=O)O[C@@H](c3ccccc3)[C@@H](c3ccccc3)N2[C@@H](c2ccc(OCCOC(=O)[C@H]3C[C@H]4C(=O)N[C@@H](CCCCNC(C)=O)C(=O)N4[C@H]3c3ccc(O)cc3)cc2)[C@]12C(=O)Nc1ccc(I)cc12
composite z-score: 2.09

Compound: Cc1ccc(S[C@]2(C(=O)O)CC(=O)N(C(C)C)[C@@H]2c2ccc(CO)cc2I)cc1
composite z-score: -0.189

Compound: O=C1C2C=CC(C(O)c3cccc4ccccc34)N(Nc3ccccc3F)C2C(=O)N1c1ccccc1 (stereo not given)
composite z-score: -0.458

Compound: O=C1O[C@H](c2ccccc2)[C@H](c2ccccc2)N2[C@H]1[C@@H](C(=O)N1CCCCCCC1)[C@]1(C(=O)Nc3ccc(C#CCCO)cc31)[C@H]2c1ccccc1OCCO
composite z-score: 2.53

Compound: C=C(COC)C(=O)CC[C@@H](OC(C)=O)c1ccc(CO)o1
composite z-score: 2.14

Compound: COCCOC(=O)N1C(=O)[C@@]2(c3cc(C#Cc4ccc(OC)cc4)ccc31)[C@H](c1ccccc1OCCO)N1[C@H](c3ccccc3)[C@H](c3ccccc3)OC(=O)[C@H]1[C@@H]2C(=O)NC[C@H](O)c1ccccc1
composite z-score: 2.21

Compound: COc1ccc(C#Cc2ccc3c(c2)[C@]2(C(=O)N3)[C@H](C(=O)NC[C@H](O)c3ccccc3)[C@H]3C(=O)O[C@H](c4ccccc4)[C@H](c4ccccc4)N3[C@@H]2c2ccc(O)cc2)cc1
composite z-score: 1.24

Compound: Cc1ccc(S[C@]2(C(=O)NCCCN(C)C)CC(=O)N(Cc3cc(C(F)(F)F)cc(C(F)(F)F)c3)[C@@H]2c2ccc(CO)cc2I)cc1
composite z-score: -0.503

Compound: NC(=O)[C@@H]1[C@H]2C(=O)O[C@H](c3ccccc3)[C@H](c3ccccc3)N2[C@H](c2ccc(O)cc2)[C@@]12C(=O)Nc1ccccc12
composite z-score: 0.154

Compound: COc1cc(C(O)C2C=CC3C(=O)NC(=O)C3N2Nc2ccccn2)cc(OC)c1OC (stereo not given)
composite z-score: 0.371

Compound: O=C(c1ccccc1)N1C(=O)[C@]2(COC(c3ccc(OCCCO)cc3)=N2)Cc2ccccc21
composite z-score: 0.658

Compound: COC(=O)[C@@]1(Cc2ccc(F)cc2)[C@H]2c3cc(C(=O)N(C)C)n(Cc4cc(F)c(F)c(F)c4)c3C[C@H]2CN1C(=O)c1ccccc1
composite z-score: -0.176

Compound: COc1ccc(CCNC(=O)[C@@]2(Sc3ccc(C)cc3)CC(=O)N(C(C)C)[C@@H]2c2ccc(CO)cc2I)cc1
composite z-score: -0.156

Compound: CCCCCN1CC=CC23O[C@@H]4C=CCCOC(=O)C4[C@H]2C(=O)N(CCCCCO)[C@@H]3C1=O (stereo not given in full)
composite z-score: 0.225
